Test system: Caco-2 cells
Experiment: MTT cytotoxicity assay, colorectal cancer cells
Type: cell-based, human
Conditions: ratio of IC50 against normal cells (Wi-38) to IC50 against Caco-2
Below, each entry is listed with its recorded Caco-2 SI.
When you answer, write just the number.

Some compounds with recorded Caco-2 SI:
O=c1[nH]cc(F)c(=O)[nH]1 [5-FU, 5-fluorouracil, reference compound]: 2.301
CCOC(=O)c1ccc(NC(=O)C2(OC(=O)c3ccccc3I)CCCCC2)cc1 [7f]: 132.209
CCOC(=O)c1ccc(NC(=O)C2(OC(=O)CNC(=O)c3ccc(NC(=O)OC(C)(C)C)cc3)CCCCC2)cc1 [7i]: 172.765
CCOC(=O)c1ccc(NC(=O)C2(OC(=O)c3ccc(Cl)cc3)CCCCC2)cc1 [7d]: 123.174

INPUT: // fetch Caco-2 cells Caco-2 SI for CCOC(=O)c1ccc(NC(=O)C2(OC(=O)c3ccc4ccccc4n3)CCCCC2)cc1 [7b]
OUTPUT: 105.697

INPUT: // fetch Caco-2 cells Caco-2 SI for CCOC(=O)c1ccc(NC(=O)C2(OC(=O)Cc3ccccc3)CCCCC2)cc1 [7g]
OUTPUT: 266.828

INPUT: // fetch Caco-2 cells Caco-2 SI for CCOC(=O)c1ccc(NC(=O)C2(OC(=O)C=Cc3ccc(C(F)(F)F)cc3)CCCCC2)cc1 [7h]
OUTPUT: 135.340

====

Below, each entry is listed with its recorded MNTC.
Test system: Wi-38 cells
Assay: MTT cytotoxicity assay, normal human fibroblasts
Type: cell-based
Conditions: 72 h, dose at 100% cell viability, mean ± SEM, read-out: Wi-38 EC100
Supply the numeric figure in nM, leaving out any unit text.

CCOC(=O)c1ccc(NC(=O)C2(OC(=O)c3ccccc3Cl)CCCCC2)cc1: 1780
CCOC(=O)c1ccc(NC(=O)C2(OC(=O)Cc3ccccc3)CCCCC2)cc1: 1300

INPUT: // fetch Wi-38 cells MNTC for CCOC(=O)c1ccc(NC(=O)C2(OC(=O)Cc3c[nH]c4ccccc34)CCCCC2)cc1
OUTPUT: 2980

INPUT: // fetch Wi-38 cells MNTC for CCOC(=O)c1ccc(N2C(=O)OC3(CCCCC3)C2=O)cc1
OUTPUT: 4940

INPUT: // fetch Wi-38 cells MNTC for CCOC(=O)c1ccc(NC(=O)C2(OC(=O)CS)CCCCC2)cc1
OUTPUT: 1460

INPUT: // fetch Wi-38 cells MNTC for CCOC(=O)c1ccc(NC(=O)C2(OC(=O)CNC(=O)c3ccc(NC(=O)OC(C)(C)C)cc3)CCCCC2)cc1
OUTPUT: 1630

INPUT: // fetch Wi-38 cells MNTC for CCOC(=O)c1ccc(NC(=O)C2(OC(=O)c3ccc(Cl)cc3)CCCCC2)cc1
OUTPUT: 1700

INPUT: // fetch Wi-38 cells MNTC for CCOC(=O)c1ccc(NC(=O)C2(OC(=O)[C@H](Cc3ccccc3)NC(=O)Oc3ccccc3)CCCCC2)cc1
OUTPUT: 1770

INPUT: // fetch Wi-38 cells MNTC for CCOC(=O)c1ccc(NC(=O)C2(OC(=O)c3ccccc3I)CCCCC2)cc1
OUTPUT: 967

====

System: Wi-38 cells
Experiment: MTT cytotoxicity assay, normal human fibroblasts
Format: cell-based
Details: 72 h, dose at 100% cell viability, mean ± SEM, read-out: Wi-38 EC100
readout-type: MNTC (nM)
Supply the numeric figure in nM, leaving out any unit text.

CCOC(=O)c1ccc(NC(=O)C2(O)CCCCC2)cc1 [compound 9]: 3220
CCOC(=O)c1ccc(NC(=O)C2(OC(=O)C=Cc3ccc(C(F)(F)F)cc3)CCCCC2)cc1 [7h]: 1650
O=c1[nH]cc(F)c(=O)[nH]1 [5-FU, 5-fluorouracil, reference compound]: 840
CCOC(=O)c1ccc(NC(=O)C2(OC(=O)c3ccccc3)CCCCC2)cc1 [7c]: 2100

Let's switch to this compound now.
INPUT: What does the data say about its MNTC? Entry: CCOC(=O)c1ccc(NC(=O)C2(OC(=O)c3ccc4ccccc4n3)CCCCC2)cc1 [7b]
OUTPUT: 1790

====

Tested on: Bcl2
Assay: RT-qPCR of Bcl2 expression in Caco-2 cells
Type: cell-based, human
Conditions: 0.06 µM for 72 h, mean ± SEM
readout-type: Bcl2 gene relative fold change (fold)
Supply the numeric figure in fold, leaving out any unit text.

O=c1[nH]cc(F)c(=O)[nH]1 [5-FU, 5-fluorouracil, reference compound]: 0.948
CCOC(=O)c1ccc(NC(=O)C2(OC(=O)Cc3c[nH]c4ccccc34)CCCCC2)cc1: 0.471
CCOC(=O)c1ccc(NC(=O)C2(OC(=O)Cc3ccccc3)CCCCC2)cc1: 0.087

Let's switch to this molecule now.
INPUT: What does the data say about its Bcl2 gene relative fold change? Entry: CCOC(=O)c1ccc(NC(=O)C2(OC(=O)[C@H](Cc3ccccc3)NC(=O)Oc3ccccc3)CCCCC2)cc1
OUTPUT: 0.127

====

Test system: Caco-2 cells
Experiment: MTT cytotoxicity assay, colorectal cancer cells
Assay type: cell-based, human
Conditions: ratio of IC50 against normal cells (Wi-38) to IC50 against Caco-2
Description: Wi-38, Caco-2 and HepG-2 cells were cultured in DMEM medium-contained 10% FBS, seeded as 5 × 10^3 cells per well in 96-well cell culture plate and incubated at 37 °C in 5% CO2 incubator. After 24 h, serial concentrations of the test compounds were incubated with cells for 72 h. […] IC50 values of the synthesized compounds were measured via the Graphpad Instat software. […] FBS. […] The half maximal inhibitory concentration (IC50) values were calculated using the Graphpad Instat software. […]
Could you mark each record fulfilled if its Caco-2 SI falls strictly under 70, and not fulfilled if it equals or exceeds it?

Solved entries (count: 5):
CCOC(=O)c1ccc(NC(=O)C2(OC(=O)Cc3c[nH]c4ccccc34)CCCCC2)cc1 [7a]: not fulfilled
CCOC(=O)c1ccc(NC(=O)C2(OC(=O)[C@H](Cc3ccccc3)NC(=O)Oc3ccccc3)CCCCC2)cc1 [7j]: not fulfilled
CCOC(=O)c1ccc(NC(=O)C2(OC(=O)c3ccccc3)CCCCC2)cc1 [7c]: fulfilled
CCOC(=O)c1ccc(NC(=O)C2(OC(=O)c3ccccc3Cl)CCCCC2)cc1 [7e]: not fulfilled
CCOC(=O)c1ccc(NC(=O)C2(O)CCCCC2)cc1 [compound 9]: not fulfilled

Now, please, on to the next compound.
INPUT: hey, is Caco-2 SI for CCOC(=O)c1ccc(N2C(=O)OC3(CCCCC3)C2=O)cc1 [compound 11] lower than 70 or not?
OUTPUT: fulfilled

Origin of measurements: paper PMC9794698
